Hey, just so you know, these numbers are from PubChem BioAssay (NCI).

Reported values of growth inhibition for individual entries
Test: NCI Yeast Anticancer Drug Screen. Data for the rad52 strain (AID 147);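 note: 0% = growth of vehicle-treated control cultures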
Settings: S. cerevisiae rad52 mutant growth inhibition; at 1.2 µM; hits give high values
Compounds without any hit were thinned out: in the full panel of roughly 79,000, 15% have a hit.
Write the answer as a number in %, unit excluded.

> print(dat)
                                   compound           endpoint  u  reported.measurement
1  CC(=O)Nc1ccc2c(c1)C(=Nc1ccc(C(=O)O)cc1)c1ccccc1-2  growth inhibition  %                    -4
2  CCCCN1C(=O)N(c2ccc(OCC)cc2)C2N(CCCC)C1C(C)(C)C2(C)C (stereo unspecified)  growth inhibition  %                    -6
3  CC(=O)Oc1ccc2c(c1)Cc1cc(N=C3C=CC(=O)O3)ccc1-2  growth inhibition  %                    14
4                        Cc1ccc2ccc(O)cc2c1  growth inhibition  %                   -31
5   COC(=O)c1cc(-c2ccc(C)cc2)[nH]c(=O)c1C#N  growth inhibition  %                    -2

# get_value(readout='growth inhibition', item= `CCCCCCc1cc(C(=O)OC/C(C)=N/NC(N)=O)c2ccccc2n1` )
-1

Next compound: CCCCCCCCCCCCCCCCCCN(C)CC(COP(=O)([O-])OCC[N+](C)(C)C)OC (stereo unspecified)
-14

Next compound: C(CCSC1=NCCN1)CSC1=NCCN1 (tested in a mixture with another compound)
20

Next compound: `O=C1C=CC(=O)N1c1ccc2c(c1)Cc1cc(NC(=O)C(F)(F)F)ccc1-2`
12

Next compound: `COc1ccc2sc3cccc(NCCN(C)C)c3c(=O)c2c1`
-3

Next compound: COc1cc(C2c3cc4c(cc3OC(Nc3ccccc3)C2C)OCO4)cc(OC)c1O (stereo unspecified)
1

Next compound: CNC1C(OC2C(OC3C(O)C(O)C(N=C(N)N)C(O)C3N=C(N)N)OC(C)C2(O)CO)OC(CO)C(O)C1O (stereo unspecified)
-3

Next compound: `CN(C)c1ccc(Sc2ccc3nc(N)nc(N)c3c2)cc1`
9

Next compound: `COc1ccc(-c2cn(-c3ccc(I)cc3)c3ncnc(N)c23)cc1`
-2

Next compound: CCOC(=O)[C@H]1Nc2ccccc2C2c3ccccc3CC21 (stereo partly specified)
-39

Next compound: `CC(C)/C(Cl)=N\OC(=O)Nc1ccccc1F`
4
